measurementNotes: NCI Yeast Anticancer Drug Screen. Data for the mec2-1 strain (AID 157)
appliedConditions: S. cerevisiae mec2-1 strain, at 50.0 µM, stronger effect = higher value
Experimental: Growth inhibition of yeast strains with defined genetic alterations is measured as a screen for potential anti-cancer activity. Selected strains with alterations in DNA damage repair or cell cycle control were exposed to compounds and growth inhibition was measured relative to vehicle treated controls. The strain used in this assay is mec2-1
About 79,000 compounds went through this panel and 15% of them were active in at least one assay; those are over-represented in the sample as a whole.
Classification field: Y = growth inhibition at or over 90%; N = growth inhibition under 90%.

Determine whether this molecule has growth inhibition no lower than 90%: CC1=C(CO)C(=O)OC(C(C)C2CCC3C4CC5OC56C(O)C(N5CC5)=CC(=O)C6(C)C4CCC23C)C1 (stereo not given)
N

Please indicate if the recorded growth inhibition for CC(C)C1(NC(=O)C2C=C3c4cccc5[nH]cc(c45)CC3N(C)C2)OC2(O)C3CCCN3C(=O)C(Cc3ccccc3)N2C1=O (stereo not given) (tested in a mixture with another compound) meets or exceeds 90%.
Y

Check the entry Cc1cc(-c2ccccc2)cc(C)[n+]1[O-] : does growth inhibition equal or exceed 90%?
N

Reported growth inhibition reaches at least 90% for CCCCCCCCCCCC1CCCC(C)N1 (stereo not given) ?
Y

growth inhibition >= 90% for Cn1c2cccc(=O)c-2nc2ccccc21 ?
N

# check: growth inhibition of C[CH2][Hg][Cl] is greater than or equal to 90%
Y

Is growth inhibition at least 90%? Consider C[CH2][Sn]1([CH2]C)[O]C2C(O)OC(CO)C(O)C2[O]1 (stereo not given)
N

Test whether the molecule [N-]=[N+]=NS(=O)(=O)c1cccc([N+](=O)[O-])c1 records growth inhibition of 90% or higher.
N

# bool: growth inhibition of CN(Cc1ccccc1)CC(O)c1ccc(Cl)cc1 (stereo not given) >= 90%
N
